Molecular target: MAP kinase-interacting serine/threonine-protein kinase 1 (Homo sapiens) (UniProt Q9BUB5);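 note: each value is an averaged percent inhibition of MKNK1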
Sequence (Q9BUB5 whole entry, looked up): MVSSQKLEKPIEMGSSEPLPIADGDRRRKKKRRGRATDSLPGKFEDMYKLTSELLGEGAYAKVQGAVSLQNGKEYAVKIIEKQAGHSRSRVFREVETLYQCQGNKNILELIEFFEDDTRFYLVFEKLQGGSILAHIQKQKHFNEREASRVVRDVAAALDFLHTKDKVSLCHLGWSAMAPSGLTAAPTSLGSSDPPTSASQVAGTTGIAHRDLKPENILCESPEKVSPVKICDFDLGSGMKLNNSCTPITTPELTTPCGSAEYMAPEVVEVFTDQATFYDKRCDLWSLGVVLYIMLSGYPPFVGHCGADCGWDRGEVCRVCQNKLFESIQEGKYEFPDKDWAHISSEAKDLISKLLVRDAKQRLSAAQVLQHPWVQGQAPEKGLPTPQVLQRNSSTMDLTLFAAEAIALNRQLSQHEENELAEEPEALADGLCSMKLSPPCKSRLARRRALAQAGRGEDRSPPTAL
Conditions: at 1 µM
observation-type: inhibition (%)

compound-structure-string: NS(=O)(=O)c1ccc(N/N=C2\C(=O)Nc3ccc(Cl)cc32)cc1
tgt: MAP kinase-interacting serine/threonine-protein kinase 1 (Homo sapiens) (UniProt Q9BUB5)
observation-type: inhibition
reported-value: 10.1
--
compound-structure-string: Oc1cccc(-c2nc(-c3ccccc3)[nH]c2-c2ccncc2)c1
tgt: MAP kinase-interacting serine/threonine-protein kinase 1 (Homo sapiens) (UniProt Q9BUB5)
observation-type: inhibition
reported-value: 25.6
--
compound-structure-string: CCOc1nccc2c1nc(-c1nonc1N)n2CC
tgt: MAP kinase-interacting serine/threonine-protein kinase 1 (Homo sapiens) (UniProt Q9BUB5)
observation-type: inhibition
reported-value: 9.35
--
compound-structure-string: C[C@@H](Oc1cc(-n2cnc3ccc(OCC4CCN(C)CC4)cc32)sc1C(N)=O)c1ccccc1C(F)(F)F
tgt: MAP kinase-interacting serine/threonine-protein kinase 1 (Homo sapiens) (UniProt Q9BUB5)
observation-type: inhibition
reported-value: 1.61
